# CONDITION_NOTES: in ethyl formate, 303.15 K
ENDPOINT: solubility (mole fraction)
Just the number, please, no unit after it.

So for `CC(C)(C)c1cc(CCC(=O)NCCCCCCNC(=O)CCc2cc(C(C)(C)C)c(O)c(C(C)(C)C)c2)cc(C(C)(C)C)c1O` , the logged solubility (mole fraction) turned out to be 0.00309

* * *

# CONDITION_NOTES: in acetone, 308.15 K
ENDPOINT: solubility (mole fraction)

molecule `CC(C)(C)c1cc(CCC(=O)NCCCCCCNC(=O)CCc2cc(C(C)(C)C)c(O)c(C(C)(C)C)c2)cc(C(C)(C)C)c1O` , solubility (mole fraction) observed: 0.00585

Cited source: BigSolDB 2.1
